- TESTED TARGET: T1, rMOR-1D (rat)
- T1 construct: whole, on cells
- T1 sequence (P33535 whole entry): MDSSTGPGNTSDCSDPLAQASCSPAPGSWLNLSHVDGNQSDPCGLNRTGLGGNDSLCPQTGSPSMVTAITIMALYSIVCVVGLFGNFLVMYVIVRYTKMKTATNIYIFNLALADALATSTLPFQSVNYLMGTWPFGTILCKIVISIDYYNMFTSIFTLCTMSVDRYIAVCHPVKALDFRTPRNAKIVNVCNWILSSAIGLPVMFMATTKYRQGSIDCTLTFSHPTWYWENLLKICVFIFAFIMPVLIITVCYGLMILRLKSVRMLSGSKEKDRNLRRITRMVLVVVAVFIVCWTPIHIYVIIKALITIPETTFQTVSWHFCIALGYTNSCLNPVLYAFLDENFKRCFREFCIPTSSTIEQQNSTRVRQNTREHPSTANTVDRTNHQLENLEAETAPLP
- EXPERIMENTAL DETAILS: competition against [3H]DAMGO (~1 nM), membranes of stable CHO transfectants
MEASURED METRIC: pKi
Conceptually, pKi converts a concentration in mol/L into minus its log10.

Entry YGGFMTSEKSQTPLVTLFKNAIIKNAYKKGE (peptide, UniProt P01189 237-267, looked up, also called B-Endorphin) [β-Endorphin] : reported pKi = ?
8.07
